Target: KRAS-PI3Kα interaction (KRAS-Q25A binding to avi-tagged full length PI3Kα) (Homo sapiens (Human), UniProt P42336)
Sequence (P42336 whole entry, looked up, stated change not applied): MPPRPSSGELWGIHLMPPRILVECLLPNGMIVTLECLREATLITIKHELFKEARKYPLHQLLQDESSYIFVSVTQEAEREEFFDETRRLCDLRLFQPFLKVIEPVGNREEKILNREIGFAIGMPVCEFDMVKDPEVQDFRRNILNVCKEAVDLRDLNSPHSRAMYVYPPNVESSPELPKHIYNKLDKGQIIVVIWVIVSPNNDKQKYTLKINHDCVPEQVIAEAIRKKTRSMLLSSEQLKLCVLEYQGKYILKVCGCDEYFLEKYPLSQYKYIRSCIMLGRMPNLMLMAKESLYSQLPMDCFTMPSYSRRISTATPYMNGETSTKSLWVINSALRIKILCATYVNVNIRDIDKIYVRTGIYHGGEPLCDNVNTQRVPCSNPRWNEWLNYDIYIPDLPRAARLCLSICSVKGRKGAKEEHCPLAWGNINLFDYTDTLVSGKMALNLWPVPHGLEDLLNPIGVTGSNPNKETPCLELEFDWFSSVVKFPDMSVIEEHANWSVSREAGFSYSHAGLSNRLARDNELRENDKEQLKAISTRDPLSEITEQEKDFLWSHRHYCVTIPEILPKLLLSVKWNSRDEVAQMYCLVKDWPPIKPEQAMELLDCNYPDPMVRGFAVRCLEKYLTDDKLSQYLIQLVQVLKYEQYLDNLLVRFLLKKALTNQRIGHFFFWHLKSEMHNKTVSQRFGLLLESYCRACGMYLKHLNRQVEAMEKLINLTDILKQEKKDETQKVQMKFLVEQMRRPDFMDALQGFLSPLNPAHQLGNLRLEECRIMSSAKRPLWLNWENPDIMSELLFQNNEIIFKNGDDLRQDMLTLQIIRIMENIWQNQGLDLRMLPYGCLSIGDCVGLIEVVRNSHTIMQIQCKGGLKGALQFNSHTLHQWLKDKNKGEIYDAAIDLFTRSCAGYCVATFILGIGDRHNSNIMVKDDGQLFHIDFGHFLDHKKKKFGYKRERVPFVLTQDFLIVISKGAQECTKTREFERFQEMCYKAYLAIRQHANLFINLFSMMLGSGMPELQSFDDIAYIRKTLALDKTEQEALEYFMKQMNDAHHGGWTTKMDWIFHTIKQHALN
Sequence (P27986 whole entry partner, looked up): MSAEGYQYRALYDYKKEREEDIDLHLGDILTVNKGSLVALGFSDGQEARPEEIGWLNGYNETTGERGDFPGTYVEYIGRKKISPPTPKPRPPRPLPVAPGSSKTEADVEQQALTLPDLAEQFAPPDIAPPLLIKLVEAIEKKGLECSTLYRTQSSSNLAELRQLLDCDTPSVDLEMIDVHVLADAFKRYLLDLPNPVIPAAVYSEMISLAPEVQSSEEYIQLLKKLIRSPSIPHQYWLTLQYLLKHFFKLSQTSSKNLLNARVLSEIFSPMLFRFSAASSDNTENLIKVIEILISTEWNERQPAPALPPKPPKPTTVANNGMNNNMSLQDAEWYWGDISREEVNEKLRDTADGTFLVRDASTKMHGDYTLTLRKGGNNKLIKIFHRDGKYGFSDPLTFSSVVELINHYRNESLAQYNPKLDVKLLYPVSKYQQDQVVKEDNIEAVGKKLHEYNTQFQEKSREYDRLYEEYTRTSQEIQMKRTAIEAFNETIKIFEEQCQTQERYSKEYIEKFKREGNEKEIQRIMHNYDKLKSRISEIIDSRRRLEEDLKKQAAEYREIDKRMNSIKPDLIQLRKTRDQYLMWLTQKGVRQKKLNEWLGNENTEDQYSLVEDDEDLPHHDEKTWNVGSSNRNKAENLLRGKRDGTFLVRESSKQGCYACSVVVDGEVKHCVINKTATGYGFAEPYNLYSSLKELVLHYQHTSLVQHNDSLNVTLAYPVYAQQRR
Test: Disrupting KRAS-PI3Kα interaction by SPR inhibition assay
Conditions: KRAS-Q25A at 20 μM, 25° C.
Procedure: SPR binding experiments were collected on a Biacore 8K Instrument (Cytiva). Neutravidin (Pierce) was amine coupled to the carboxymethylated dextran surface of a CM5 sensor chip (Cytiva) using standard amine coupling chemistry. […] Steady-state levels of KRAS binding were recorded and fit with a 4-parameter inhibition model to determine the IC50 values.
pIC50: −log10 of the molar value.
Answer each item with its documented pIC50.

// worked examples, pIC50 included
C=CC(=O)NCc1cccc(-c2nc(-c3ccc4c(c3)CCNC4)c3ccsc3c2-c2ccc(F)cc2OCCOC)c1 ... > 5.30
COCCOc1cc(F)ccc1-c1c(-c2cnn(CCC(=O)NC(C)(C)C)c2)nc(-c2ccc3c(c2)CCNC3)c2ccsc12 ... 4.60 to 5.30
COCCOc1cc(F)ccc1-c1c(-c2cccc(C(=O)N3CCCC3)c2)nc(-c2ccc3c(c2)CCNC3)c2ccsc12 ... > 5.30
COCCOc1cc(F)ccc1-c1c(-c2cccc(C(=O)NC(C)C)c2)nc(-c2ccc3c(c2)CCNC3)c2ccsc12 ... 4.60 to 5.30
COCCOc1ccccc1-c1c(-c2ccccc2)nc(-c2ccc3c(c2)CCNC3)c2c1CCC2 ... < 4.60
C=CC(=O)N1CCC(n2cc(-c3nc(-c4ccc5c(c4)CCNC5)c4ccsc4c3-c3ccc(F)cc3OCCOC)cn2)CC1 ... 4.60 to 5.30

Then there is this molecule:
Please fill in: pIC50 reported for COCCOc1cc(F)ccc1-c1c(-c2c[nH]cn2)nc(-c2ccc3c(c2)CCNC3)c2ccsc12 = 4.60 to 5.30

* * *

Biological target: KRAS-PI3Kα interaction (KRAS-Q25A binding to avi-tagged full length PI3Kα) (Homo sapiens (Human), UniProt P42336)
Assay: Disrupting KRAS-PI3Kα interaction by SPR inhibition assay
Conditions: KRAS-Q25A at 20 μM, 25° C.
MEASURED PROPERTY: IC50

Some solved entries appear below for comparison.
COCCOc1cc(F)ccc1-c1c(-c2cccc(CNC(=O)CC(C)(C)C)c2)nc(-c2ccc3c(c2)CCNC3)c2ccsc12 [compound 19] ... < 5 µM
C=CC(=O)NCc1csc(-c2nc(-c3ccc4c(c3)CCNC4)c3ccsc3c2-c2ccc(F)cc2OCCOC)n1 [compound 38] ... 5 to 25 µM
COCCOc1ccccc1-c1c(-c2cccc(Cl)c2)nc(-c2ccc3c(c2)CCNC3)c2ccsc12 [compound 6] ... 5 to 25 µM
COCCOc1cc(F)ccc1-c1c(-c2cnn(C3CCN(C(=O)/C=C/CN(C)C)C3)c2)nc(-c2ccc3c(c2)CCNC3)c2ccsc12 (centres unmarked) [compound 56] ... 5 to 25 µM
COCCOc1cc(F)ccc1-c1c(-c2cccc(CNC(=O)C(C)C)c2)nc(-c2ccc3c(c2)CCNC3)c2ccsc12 [compound 10] ... < 5 µM

Please give IC50 for each item listed below.
1. C=CC(=O)NC1CC(n2cc(-c3nc(-c4ccc5c(c4)CCNC5)c4ccsc4c3-c3ccc(F)cc3OCCOC)cn2)C1 (centres unmarked) [compound 60]
2. C=CC(=O)Nc1cccc(-c2nc(-c3ccc4c(c3)CCNC4)c3ccsc3c2-c2ccc(F)cc2OCCOC)c1 [Compound 12]
3. C=CC(=O)N1CCc2nc(-c3nc(-c4ccc5c(c4)CCNC5)c4ccsc4c3-c3ccc(F)cc3OCCOC)sc2C1 [Compound 58]
4. C=CC(=O)N1CC[C@H](n2cc(-c3nc(-c4cnn(C)c4)c4ccsc4c3-c3ccc(F)cc3OCCOC)cn2)C1 [compound 53]

result:
1: 5 to 25 µM; 2: < 5 µM; 3: 5 to 25 µM; 4: 5 to 25 µM

* * *

Tested on: pAKT in CAL27 cells
Assay: pAKT IC50 in CAL27 cancer cell line
Type: cell-based
Settings: Homo sapiens, CAL-27; CAL27, oral squamous cell; HER3 positive
MEASURED PROPERTY: pIC50
Numbers only, as −log10 of the molar value.

According to the records, this compound C=CC(=O)N1CCc2nc(-c3nc(-c4ccc5c(c4)CCNC5)c4ccsc4c3-c3ccc(F)cc3OCCOC)sc2C1 displays pIC50 of 7.09

* * *

Test: Pharmacokinetic profile in male CD-1 mice
Assay type: in vivo
Settings: mouse, plasma, single oral dose 300 mg/kg
MEASURED PROPERTY: AUC(0-inf) (ng·h/mL)
One number for each entry, in ng·h/mL.

get_value(item= C=CC(=O)N1CCc2nc(-c3nc(-c4ccc5c(c4)CCNC5)c4ccsc4c3-c3ccc(F)cc3OCCOC)sc2C1 , readout=AUC(0-inf)) returns 78700

* * *

Assay: Pharmacokinetic profile in male CD-1 mice
Type: in vivo
Conditions: mouse, plasma, single oral dose 30 mg/kg
MEASURED PROPERTY: AUC(0-inf)
Answer with the figure and its unit, nothing else.

// C=CC(=O)N1CCc2nc(-c3nc(-c4ccc5c(c4)CCNC5)c4ccsc4c3-c3ccc(F)cc3OCCOC)sc2C1 [Compound 58] : AUC(0-inf) value = 8450 ng·h/mL

* * *

Assay: Pharmacokinetic profile in male CD-1 mice
Type: in vivo
Conditions: mouse, plasma, single oral dose 300 mg/kg
MEASURED PROPERTY: Cmax (ng/mL)
Give bare numbers, in ng/mL.

Briefly, Cmax measured for C=CC(=O)N1CCc2nc(-c3nc(-c4ccc5c(c4)CCNC5)c4ccsc4c3-c3ccc(F)cc3OCCOC)sc2C1 [Compound 58] : 3260

* * *

Target: KRAS-PI3Kα interaction (KRAS-Q25A binding to avi-tagged full length PI3Kα) (Homo sapiens (Human))
Assay: Disrupting KRAS-PI3Kα interaction by SPR inhibition assay
Conditions: KRAS-Q25A at 20 μM, 25° C.
pIC50: −log10 of the molar value.
MEASURED PROPERTY: pIC50

Take a look at these entries with their results.
C=CC(=O)N1CC(Cn2cc(-c3nc(-c4ccc5c(c4)CCNC5)c4ccsc4c3-c3ccc(F)cc3OCCOC)cn2)C1 ... 4.60 to 5.30
C=CC(=O)N1CC[C@H](n2cc(-c3nc(-c4ccc5c(c4)CCNC5)c4ccsc4c3-c3ccc(F)cc3OCCOC)cn2)C1 ... 4.60 to 5.30
C=CC(=O)NCc1cccc(-c2nc(-c3ccc4c(c3)CCNC4)c3c(c2-c2ccccc2OCCOC)CCC3)c1 ... 4.60 to 5.30

Continue with the next molecule.
COCCOc1cc(F)ccc1-c1c(-c2ccc3c(c2)CCN(C)C3)nc(-c2ccc3c(c2)CCNC3)c2ccsc12 yielded pIC50 of > 5.30

* * *

What pIC50 was measured for each of the following?
Target: KRAS-PI3Kα interaction (KRAS-Q25A binding to avi-tagged full length PI3Kα) (Homo sapiens (Human))
Experiment: Disrupting KRAS-PI3Kα interaction by SPR inhibition assay
Details: KRAS-Q25A at 20 μM, 25° C.
pIC50: −log10 of the molar value.

Some solved entries appear below for comparison.
COCCOc1cc(F)ccc1-c1c(-c2cnn(CCNC(=O)C(C)C)c2)nc(-c2ccc3c(c2)CCNC3)c2ccsc12 ... 4.60 to 5.30
COCCOc1cc(F)ccc1-c1c(-c2cccc(CNC(=O)C3CCCC3)c2)nc(-c2ccc3c(c2)CCNC3)c2ccsc12 ... > 5.30
COCCOc1cc(F)ccc1-c1c(-c2cnn(CC(=O)NC(C)(C)C)c2)nc(-c2ccc3c(c2)CCNC3)c2ccsc12 ... > 5.30
C=CC(=O)Nc1cccc(-c2nc(-c3cnn(C)c3)c3ccsc3c2-c2ccc(F)cc2OCCOC)c1 ... 4.60 to 5.30
C=CC(=O)N1CC[C@H](n2cc(-c3nc(-c4ccc5c(c4)CNC(=O)C5)c4ccsc4c3-c3ccc(F)cc3OCCOC)cn2)C1 ... 4.60 to 5.30
COCCOc1ccccc1-c1c(-c2ccccc2)nc(-c2ccc3c(c2)CCNC3)c2ccsc12 ... 4.60 to 5.30

Give me pIC50 for each of these compounds, listed below.
1. COCCOc1cc(F)ccc1-c1c(-c2cnn(CCC(=O)NC(C)(C)C)c2)nc(-c2ccc3c(c2)CCNC3=O)c2ccsc12
2. C=CC(=O)N1CCC(n2cc(-c3nc(-c4ccc5c(c4)CCN(C)C5)c4ccsc4c3-c3ccc(F)cc3OCCOC)cn2)C1 (centres unmarked)
3. CCC(=O)Nc1cccc(-c2nc(-c3ccc4c(c3)CCNC4)c3ccsc3c2-c2ccc(F)cc2OCCOC)c1
4. C=CC(=O)Nc1ccc2nc(-c3nc(-c4ccc5c(c4)CCNC5)c4ccsc4c3-c3ccc(F)cc3OCCOC)[nH]c2c1
5. C=CC(=O)NC1CC(n2cc(-c3nc(-c4ccc5c(c4)CCNC5)c4ccsc4c3-c3ccc(F)cc3OCCOC)cn2)C1 (centres unmarked) [compound 55]
6. C=CC(=O)Nc1cccc(-c2nc(-c3ccc4c(c3)CCC(O)C4)c3ccsc3c2-c2ccc(F)cc2OCCOC)c1 (centres unmarked)
7. C=CC(=O)Nc1cccc(-c2nc(-c3ccc4c(c3)CCN(C)C4)c3ccsc3c2-c2ccc(F)cc2OCCOC)c1
8. C=CC(=O)N1CCC(n2cc(-c3nc(-c4ccc5c(c4)CNC(=O)C5)c4ccsc4c3-c3ccc(F)cc3OCCOC)cn2)CC1

result:
["4.60 to 5.30", "4.60 to 5.30", "> 5.30", "< 4.60", "4.60 to 5.30", "< 4.60", "4.60 to 5.30", "4.60 to 5.30"]

Sourced from patent US20250230138A1
